Measurement Description: Inhibition of Very late antigen 4/vascular cell adhesion molecule 1 activity in ELISA assay, at 10 nM concentration
Readout Type: inhibition (%)
I only need the number, in %, no unit after it.

>  <Compound>
CCC(C(=O)N[C@@H](Cc1ccc(NC(=O)c2ccnc3ccccc23)cc1)C(=O)O)c1ccccc1 (stereo partly drawn)

>  <inhibition / %>
49

$$$$
>  <Compound>
O=C(Nc1ccc(C[C@H](NC(=O)C2CCCC2)C(=O)O)cc1)c1ccnc2ccccc12

>  <inhibition / %>
25

$$$$
>  <Compound>
CC1(C(=O)N[C@@H](Cc2ccc(NC(=O)c3ccnc4ccccc34)cc2)C(=O)O)CCCCC1

>  <inhibition / %>
49

$$$$

query: So what does the record say about inhibition for CC1(C)C(C(=O)N[C@@H](Cc2ccc(NC(=O)c3ccnc4ccccc34)cc2)C(=O)O)C1(C)C ?
result: 33

query: So what does the record say about inhibition for CC(=O)N1CSC[C@H]1C(=O)N[C@@H](Cc1ccc(NC(=O)c2ccnc3ccccc23)cc1)C(=O)O ?
result: 37

query: So what does the record say about inhibition for CCCCC(C)(CC)C(=O)N[C@@H](Cc1ccc(NC(=O)c2ccnc3ccccc23)cc1)C(=O)O (stereo partly drawn) ?
result: 49

query: So what does the record say about inhibition for O=C(N[C@@H](Cc1ccc(NC(=O)c2ccnc3ccccc23)cc1)C(=O)O)c1c(F)cccc1F ?
result: 64

query: So what does the record say about inhibition for O=C(N[C@@H](Cc1ccc(NC(=O)c2ccnc3ccccc23)cc1)C(=O)O)c1ccccc1Br ?
result: 81

* * *

Measurement Description: Inhibition of Very late antigen 4/vascular cell adhesion molecule 1 inhibition activity in an ELISA assay
Readout Type: IC50
Answer format: value, then unit.

>  <Compound>
CC1(C(=O)N[C@@H](Cc2ccc(NC(=O)c3ccnc4ccccc34)cc2)C(=O)O)CC1(Cl)Cl (some centres undefined)

>  <Reported Measurement>
3 nM

$$$$
>  <Compound>
O=C(Nc1ccc(C[C@H](NC(=O)C2(c3ccc(Cl)cc3)CCCC2)C(=O)O)cc1)c1ccnc2ccccc12

>  <Reported Measurement>
6.4 nM

$$$$
>  <Compound>
O=C(Nc1ccc(C[C@H](NC(=O)C2(c3ccccc3)CCCC2)C(=O)O)cc1)c1cccnc1Oc1ccccc1

>  <Reported Measurement>
6.1 nM

$$$$

Then there is this compound:
query: So what does the record say about IC50 for O=C(Nc1ccc(C[C@H](NC(=O)[C@@H]2CCCN2C(=O)CCc2ccccc2)C(=O)O)cc1)c1ccnc2ccccc12 ?
result: 2.1 nM

* * *

Measurement Description: Inhibition of Very late antigen 4/vascular cell adhesion molecule 1 activity in ELISA assay, at 10 nM concentration
Readout Type: inhibition (%)
I only need the number, in %, no unit after it.

Reference set (5 entries):
>  <Molecule>
O=C(Nc1ccc(C[C@H](NC(=O)C2(c3ccc(Cl)cc3)CCCC2)C(=O)O)cc1)c1ccnc2ccccc12

>  <Readout Type>
inhibition

>  <Measure Unit>
%

>  <Reported Measurement>
53

$$$$
>  <Molecule>
CC(C)(C)C(=O)N[C@@H](Cc1ccc(NC(=O)c2ccnc3ccccc23)cc1)C(=O)O

>  <Readout Type>
inhibition

>  <Measure Unit>
%

>  <Reported Measurement>
23

$$$$
>  <Molecule>
Cc1cccc(C(=O)N[C@@H](Cc2ccc(NC(=O)c3ccnc4ccccc34)cc2)C(=O)O)c1C

>  <Readout Type>
inhibition

>  <Measure Unit>
%

>  <Reported Measurement>
31

$$$$
>  <Molecule>
N#CC1(C(=O)N[C@@H](Cc2ccc(NC(=O)c3ccnc4ccccc34)cc2)C(=O)O)CCCC1

>  <Readout Type>
inhibition

>  <Measure Unit>
%

>  <Reported Measurement>
64

$$$$
>  <Molecule>
O=C(Nc1ccc(C[C@H](NC(=O)C2(c3ccccc3)CCCCC2)C(=O)O)cc1)c1ccnc2ccccc12

>  <Readout Type>
inhibition

>  <Measure Unit>
%

>  <Reported Measurement>
67

$$$$

query: So what does the record say about inhibition for CC(=O)N1CCC[C@H]1C(=O)N[C@@H](Cc1ccc(NC(=O)c2ccnc3ccccc23)cc1)C(=O)O ?
result: 61

query: So what does the record say about inhibition for O=C(Nc1ccc(C[C@H](NC(=O)C2(c3ccccc3)CCCC2)C(=O)O)cc1)c1ccnc2ccccc12 (stereo in doubt; 46) ?
result: 68

* * *

Measurement Description: Inhibition of Very late antigen 4/vascular cell adhesion molecule 1 activity in ELISA assay, at 10 nM concentration
Readout Type: inhibition (%)
I only need the number, in %, no unit after it.

Reference set (3 entries):
>  <Molecule>
Cc1cc(C)c(C(=O)N[C@@H](Cc2ccc(NC(=O)c3ccnc4ccccc34)cc2)C(=O)O)c(C)c1

>  <inhibition, %>
45

$$$$
>  <Molecule>
O=C(N[C@@H](Cc1ccc(NC(=O)c2ccnc3ccccc23)cc1)C(=O)O)C(=O)c1ccccc1

>  <inhibition, %>
13

$$$$
>  <Molecule>
O=C(Nc1ccc(C[C@H](NC(=O)C2CC2)C(=O)O)cc1)c1ccnc2ccccc12

>  <inhibition, %>
12

$$$$

query: So what does the record say about inhibition for O=C(Nc1ccc(C[C@H](NC(=O)C2CCc3ccccc3C2)C(=O)O)cc1)c1ccnc2ccccc12 (stereo not given in full) ?
result: 15

query: So what does the record say about inhibition for O=C(N[C@@H](Cc1ccc(NC(=O)c2ccnc3ccccc23)cc1)C(=O)O)c1ccccc1[N+](=O)[O-] ?
result: 73

query: So what does the record say about inhibition for COc1ccc(C2(C(=O)N[C@@H](Cc3ccc(NC(=O)c4ccnc5ccccc45)cc3)C(=O)O)CCCC2)cc1 ?
result: 73

query: So what does the record say about inhibition for O=C(Nc1ccc(C[C@H](NC(=O)C23CC4CC(CC(C4)C2)C3)C(=O)O)cc1)c1ccnc2ccccc12 ?
result: 72

query: So what does the record say about inhibition for O=C(Nc1ccc(C[C@H](NC(=O)[C@@H]2CCCN2C(=O)CCc2ccccc2)C(=O)O)cc1)c1ccnc2ccccc12 ?
result: 65

query: So what does the record say about inhibition for Cc1noc(C)c1C(=O)N[C@@H](Cc1ccc(NC(=O)c2ccnc3ccccc23)cc1)C(=O)O ?
result: 46

query: So what does the record say about inhibition for O=C(Nc1ccc(C[C@H](NC(=O)[C@@H]2CCCN2C(=O)c2ccccc2)C(=O)O)cc1)c1ccnc2ccccc12 ?
result: 18
